Target: Tyrosyl-DNA phosphodiesterase 1 (Homo sapiens) (UniProt Q9NUW8)
Sequence (Q9NUW8 whole entry, looked up): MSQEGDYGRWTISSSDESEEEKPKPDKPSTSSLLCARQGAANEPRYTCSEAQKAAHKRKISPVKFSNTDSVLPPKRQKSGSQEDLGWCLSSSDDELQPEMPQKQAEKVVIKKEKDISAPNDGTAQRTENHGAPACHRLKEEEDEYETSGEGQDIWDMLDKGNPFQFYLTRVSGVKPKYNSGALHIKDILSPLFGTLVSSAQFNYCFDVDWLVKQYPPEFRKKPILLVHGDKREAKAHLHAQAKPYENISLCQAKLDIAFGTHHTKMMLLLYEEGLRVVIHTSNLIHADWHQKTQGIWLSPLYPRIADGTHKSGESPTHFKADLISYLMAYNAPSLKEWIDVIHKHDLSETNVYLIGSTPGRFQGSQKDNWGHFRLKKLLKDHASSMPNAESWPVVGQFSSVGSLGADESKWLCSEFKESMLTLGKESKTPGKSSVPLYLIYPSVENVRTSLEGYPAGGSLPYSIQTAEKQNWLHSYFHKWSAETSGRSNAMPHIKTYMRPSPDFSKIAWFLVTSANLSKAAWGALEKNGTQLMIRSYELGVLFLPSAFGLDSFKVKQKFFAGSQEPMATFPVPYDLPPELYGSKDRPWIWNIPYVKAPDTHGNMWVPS
Assay: qHTS Assay for Inhibitors of Tyrosyl-DNA Phosphodiesterase (TDP1); further: nearly all actives have a fitted effect of over 40% in size
Conditions: recombinant TDP1, AlphaScreen DNA substrate cleavage; series mostly up to 130 µM
Among all 350,000 compounds or so, about 990 (0.28%) were called active. Inconclusive results (about 2%) are left out. The call rests on the fitted dose curve; in most records, active means well fitted inhibition curve with a large enough effect; inconclusive means small, poorly fitted or top-dose-only effect; inactive means no such curve, though single readings can be large or run the other way. The list comes from a sample in which actives are over-represented; it also holds close analogues and randomly drawn compounds.
Possible outcomes: active, inactive

COMPOUND | TESTED ON | CLASS LABEL
CC(C)c1ccc(NC(=O)C2CCN(c3nc(-c4ccc(C(C)C)cc4)no3)CC2)cc1 | Tyrosyl-DNA phosphodiesterase 1 (Homo sapiens) (UniProt Q9NUW8) | inactive
O=C1CCc2cc(S(=O)(=O)Nc3cccc(Oc4ccccc4)c3)ccc2N1 | Tyrosyl-DNA phosphodiesterase 1 (Homo sapiens) (UniProt Q9NUW8) | inactive
CCOC(=O)c1sc2nc(CSc3ccccc3)[nH]c(=O)c2c1C | Tyrosyl-DNA phosphodiesterase 1 (Homo sapiens) (UniProt Q9NUW8) | inactive
COc1ccc(N2C(=O)CSC23C(=O)N(Cc2cccc(F)c2)c2ccccc23)cc1Cl (stereo unspecified) | Tyrosyl-DNA phosphodiesterase 1 (Homo sapiens) (UniProt Q9NUW8) | inactive
CC(=O)c1sc2nc(SCC(=O)N3CCCCC3)[nH]c(=O)c2c1C | Tyrosyl-DNA phosphodiesterase 1 (Homo sapiens) (UniProt Q9NUW8) | inactive
O=C(NCCCO)C(=O)Nc1c2c(nn1-c1ccccc1)CSC2 | Tyrosyl-DNA phosphodiesterase 1 (Homo sapiens) (UniProt Q9NUW8) | inactive
CCc1ccc(OCCCn2c(CCCNC(=O)C3CCCCC3)nc3ccccc32)cc1 | Tyrosyl-DNA phosphodiesterase 1 (Homo sapiens) (UniProt Q9NUW8) | inactive
COc1cccc(OC2=NS(=O)(=O)c3ccccc32)c1 | Tyrosyl-DNA phosphodiesterase 1 (Homo sapiens) (UniProt Q9NUW8) | inactive
COc1ccc(-c2cn3nc(N4CCCC(C(=O)NCCCOC(C)C)C4)sc3n2)cc1 (stereo unspecified) | Tyrosyl-DNA phosphodiesterase 1 (Homo sapiens) (UniProt Q9NUW8) | inactive
Oc1ccc(Cl)cc1C1C=C(c2ccc3c(c2)OCO3)NC(c2c(F)cccc2Cl)N1 (stereo unspecified) | Tyrosyl-DNA phosphodiesterase 1 (Homo sapiens) (UniProt Q9NUW8) | inactive
Oc1ccc(Cl)cc1C1C=C(c2ccc3c(c2)OCO3)NC(c2ccc(F)c(Br)c2)N1 (stereo unspecified) | Tyrosyl-DNA phosphodiesterase 1 (Homo sapiens) (UniProt Q9NUW8) | inactive
N#Cc1ccc(OC2=NS(=O)(=O)c3ccccc32)cc1 | Tyrosyl-DNA phosphodiesterase 1 (Homo sapiens) (UniProt Q9NUW8) | inactive
Oc1ccc(Br)cc1C1C=C(c2ccc3c(c2)OCO3)NC(c2ccc(Cl)cc2)N1 (stereo unspecified) | Tyrosyl-DNA phosphodiesterase 1 (Homo sapiens) (UniProt Q9NUW8) | inactive
NC(=O)CSc1nnc(NC(=O)c2ccc(Br)o2)s1 | Tyrosyl-DNA phosphodiesterase 1 (Homo sapiens) (UniProt Q9NUW8) | active
COC(=O)c1ccccc1NC(=O)c1ccc2c(=O)n3c(nc2c1)CCCCC3 | Tyrosyl-DNA phosphodiesterase 1 (Homo sapiens) (UniProt Q9NUW8) | inactive
CCCCNc1ccc(-c2nc(-c3ccncc3)no2)cc1[N+](=O)[O-] | Tyrosyl-DNA phosphodiesterase 1 (Homo sapiens) (UniProt Q9NUW8) | inactive
CC(C)c1ccc(C2CC(=O)N3CN(C4CCCCC4)CSC3=C2C#N)cc1 (stereo unspecified) | Tyrosyl-DNA phosphodiesterase 1 (Homo sapiens) (UniProt Q9NUW8) | inactive
COc1cccc(C(=O)NC2CCN(C#N)CC2)c1 | Tyrosyl-DNA phosphodiesterase 1 (Homo sapiens) (UniProt Q9NUW8) | inactive
CCCCCCC1(C)NC(c2ccc3c(c2)OCO3)=CC(c2ccccc2O)N1 (stereo unspecified) | Tyrosyl-DNA phosphodiesterase 1 (Homo sapiens) (UniProt Q9NUW8) | inactive
CSc1nnc(SCc2nc3sc(C(=O)O)c(C)c3c(=O)[nH]2)s1 | Tyrosyl-DNA phosphodiesterase 1 (Homo sapiens) (UniProt Q9NUW8) | active
CN(C)c1ccc(C(=O)NCC(=O)OC(C(=O)Nc2cc(C(F)(F)F)ccc2Cl)c2ccccc2)cc1 (stereo unspecified) | Tyrosyl-DNA phosphodiesterase 1 (Homo sapiens) (UniProt Q9NUW8) | inactive

Cited source: PubChem BioAssay AID485290
